Each item that follows carries a reported Growth Rate.
Test system: U2OS
Experiment: Incucyte cell viability with U2OS; also: unitless GR value; below 1 slowed growth and below 0 cell loss
Type: toxicity, cell-based
Settings: human, 18 h, 10 µM, compound concentration 10 uM, replicate number 1
Answer with the value's number alone.

Output Growth Rate of `C#Cc1cnc2[nH]cc(-c3cccc4c3CCN4C(=O)[C@@H]3CCCN3C#N)c2c1`
-0.68

Supply recorded Growth Rate for `O=C(Nc1ccc(-n2nc(C(F)(F)F)cc2C(F)(F)F)cc1)c1ccncc1F` here.
0.8

Annotate the compound `Cc1cc(OC2CCS(=O)(=O)CC2)cc(C)c1-c1cccc(COc2ccc(CCC(=O)O)c(F)c2)c1` with its measured Growth Rate.
0.96

Write down Growth Rate measured for item `CC(=O)Nc1nc(C)c(S(=O)(=O)Nc2ccc(C(O)(C(F)(F)F)C(F)(F)F)cc2)s1`
0.74

Supply measured Growth Rate of `CN(C(=O)c1cnn2cccnc12)c1cc2c(cc1N1CCOCC1)C(=O)N(C[C@@H](F)C(C)(C)O)C2` in your reply.
0.75

* * *

Tested on: U2OS
Experiment: Incucyte cell viability with U2OS; also: unitless GR value; below 1 slowed growth and below 0 cell loss
Type: toxicity, cell-based
Conditions: human, 0 h, 10 µM, compound concentration 10 uM, replicate number 1
READOUT_TYPE: Growth Rate
Enter the number alone.

For `CP(C)(=O)c1ccc(CNC(=O)C2CCN(S(=O)(=O)c3cc(Cl)cc(Cl)c3)CC2)cc1` , write its Growth Rate.
0.11

Assign Growth Rate to the following record: Cc1ccc(-n2nc(C(C)(C)C)cc2NC(=O)Nc2ccc(OCCN3CCOCC3)c3ccccc23)cc1 [DORAMAPIMOD]
-1

* * *

Test system: U2OS
Experiment: Incucyte cell viability with U2OS; also: unitless GR value; below 1 slowed growth and below 0 cell loss
Type: toxicity, cell-based
Conditions: human, 12 h, 10 µM, compound concentration 10 uM, replicate number 1
READOUT_TYPE: Growth Rate
// return just the number, without any unit appended

Here is how some compounds turned out for Growth Rate.
1) COc1cc(-c2cn[nH]c2)ccc1C(=O)Nc1ccc2c(c1)CCNCC2.Cl	0.82
2) CO[C@H](C)CN1CC[C@@]2(C)c3ccc(O)cc3C[C@@H]1C2(C)C.Cl	0.93
3) CC(=O)c1c(C)c2cnc(Nc3ccn(C)n3)nc2n(C2CCCC2)c1=O	0.06

Fill in Growth Rate for record `Cc1cc(C)nc(Nc2ncc(C(=O)NCCc3c(C)[nH]c4ccccc34)cn2)c1.Cl`
0.79

Look up and report measured Growth Rate for this entry: Cc1ccc2c(N)c(C(=O)NC3CCc4cc(N5CC6CCC(C5)N6)ccc4C3)sc2n1.O=CO (centres undefined)
0.47

Please look at this compound and report its Growth Rate: `CN(CCCCCCC1=C(c2cc(F)cc(F)c2)CCCc2cc(O)ccc21)CCCCS(=O)(=O)CCCC(F)(F)F`
-0.94

Item CN1C(=O)c2c(nn(Cc3ccc(-c4cccc(F)n4)cc3)c2Nc2ccccc2)N2C1=N[C@@H]1CCC[C@@H]12.O=P(O)(O)O [LENRISPODUN PHOSPHATE] : provide Growth Rate
0.5

Provide only the value of recorded Growth Rate for `COc1ccccc1C(=O)Nc1cccc(NC(=O)c2cccc(C)c2)c1`
0.78

Return Growth Rate for the following compound: `COc1ccc(Cl)cc1[C@]1(F)C(=O)Nc2cc(C(F)(F)F)ccc21`
0.57

* * *

A collection of compounds and their measured Growth Rate
Test system: U2OS
Experiment: Incucyte cell viability with U2OS; also: unitless GR value; below 1 slowed growth and below 0 cell loss
Type: toxicity, cell-based
Details: human, 18 h, 10 µM, compound concentration 10 uM, replicate number 2

Previously resolved entries follow.
1. c1cc(-c2cnn3cc(-c4ccc(N5CCNCC5)cc4)cnc23)c2cccnc2c1	-0.48
2. Cl.Cl.O=[N+]([O-])c1ccc(CN2CCOCCOCCN(Cc3ccc([N+](=O)[O-])cc3)CCOCC2)cc1	0.56
3. CC(CNS(=O)(=O)C(C)C)c1ccc(-c2ccc(C#N)cc2)cc1 (stereo not given)	0.73

Look up and report measured Growth Rate for this entry: `CN(C)CCCNc1ccnc(Nc2cccc(Cl)c2)n1`
0.64

Find the measured Growth Rate of `Cc1[nH]c2c(N3CCCCC3)c(-c3ccccc3)nn2c(=O)c1-c1ccc(O)cc1` and report it.
0.93

Source listed as ChEMBL document CHEMBL5303304.
